Tested on: MS2 coat protein
Assay: apparent KD of MS2 coat protein; designed switch direction (-1 OFF switch, 1 ON switch): -1; higher = weaker reporter binding
Conditions: input ligand: FMN 200 uM
Use condition met when the recorded apparent KD of MS2 coat protein is no lower than 60 nM; use condition not met when it is lower.

Reference set, count: 4
AGUUUACAUGAGGAUCACCCAUGUGAGGAUAUGGAUUCGCUGGCCGUAGCCAGUGGAUCCAGAAGGCGCAUGAU [JL-ex1-4.13] (Eterna round: R97, puzzle: Exclusion 1)    condition met
CUUGUGUUAGGAUAUGUUAAGCCGCCACCUGGCGGAUCAGGACAGAAGGAACAUGAGGAUCACCCAUGUAAAAG [Inenxele] (Eterna round: R97, puzzle: Exclusion 4)    condition not met
AGUCGAAAGAACCACAUGGACAUGAGGAUCACCCAUGUGCAAGCCUUUUUCUCGUCACUAUCGUCAAAAGACGAUAG [Omei Mir Offv1 A5] (Eterna round: R97, puzzle: Sensor, turn-off variant 1)    condition met
AAUAACAAGCAGAUCCUAAACAUGAGGAUCACCCAUGUGCUCGUCUUGUUGUACUAUCACUCGAAAGUGAUAGUACA (Eterna round: R97, puzzle: Sensor, turn-off variant 1)    condition met

IN: Entry UCUGUUAUGCGAGGAUAUCGACCAUUCCUCUUAACAUGAGGAUCACCCAUGUGCUAAUCCUUCAACGAGAAGGCGCUCUUACUC [JR_ExcNG2_Sub069] (Eterna round: R96, puzzle: Exclusion NG 2) : is its apparent KD of MS2 coat protein no less than 60 nM?
OUT: condition met

IN: Could you do the same for AUUCAACAUGAGGAUCACCCAUGUGAGGAUAUGCGAGUAUAGACUUCGGUCUGAUAGAGCAGAAGGCGCAGAUA [EX1 #6] (Eterna round: R97, puzzle: Exclusion 1) , please?
OUT: condition not met

IN: Could you do the same for AAACGGUAAGGAUAUCGGGCAACGGACAUGAGGAUCACCCAUGUGAACCUGCGUAUCCUCCGAGAAGGUACAAAAG [Diinbibe] (Eterna round: R97, puzzle: Exclusion 5) , please?
OUT: condition not met

IN: Could you do the same for UCUGGUCGAGGAUAUAUAUGACGUGCUUCGGCACGAAGGUCACAUGAGGAUCACCCAUGUAGAAGGCGACCAGA [E2/9-A3] (Eterna round: R97, puzzle: Exclusion 2) , please?
OUT: condition met

IN: Could you do the same for AGCUUUUUGUUCGUCUUACACAUGAGGAUCACCCAUGUGUCGGACCGCAUCGAUAGAUGUAGACCGAGAAGCAUGGG [Omdei Mir OFFv1 C9] (Eterna round: R97, puzzle: Sensor, turn-off variant 1) , please?
OUT: condition met

IN: Could you do the same for ACAUUGAAUGUGAGGAUAUCGAUGUGAUGGGUUGUCGAGAAGGCACAUGAGGAUCACCCAUGUGGGAUGUAGCA [JR_BMEx4_Sub033] (Eterna round: R97, puzzle: Brourd's mod of Exclusion 4) , please?
OUT: condition met

IN: Could you do the same for UUAAUACAUGUAGGAUAUGCGUGGCGAAGCUAUGCAGAAGGACAUGAGGAUCACCCAUGUUCUAGCGUCCGCGUACGGAUGCAA [JL Eng1 1.21 mod 9] (Eterna round: R96, puzzle: Exclusion NG 1) , please?
OUT: condition not met

IN: Could you do the same for GUGCCGCGAGGAUAUACAGACGGGUCCAAAACGUGUCUCGGACUUGAGGAUCACCCAAGUAGAAGGCGUAUCAG [salish99_ex2_r4_619] (Eterna round: R97, puzzle: Exclusion 2) , please?
OUT: condition not met

IN: Could you do the same for UGCAAGCUUUUGAGAUCCUACAUGAGGAUCACCCAUGUGCUCGUCUUAUAACGUACUGUGACGAAAGUCACGGUACG [JL TOV1 3.97] (Eterna round: R97, puzzle: Sensor, turn-off variant 1) , please?
OUT: condition met

IN: Could you do the same for CAAGCCUGAACGGCCGCUCACAUGAGGAUCACCCAUGUCACCUGUGCUAGAGGACCACAUUAAUCGCUUCGUCUUGG [Eternabot (L1) Solution 7] (Eterna round: R97, puzzle: Sensor, turn-off variant 1) , please?
OUT: condition met

IN: Could you do the same for GUUUUAUAUGAAGGAUAUACUUAACAUGAGGAUCACCCAUGUGGUGUUGUGAGUGAGUGAGUUUAGUAGAAGGUCAAGUAUUUU [JMF's solution 56] (Eterna round: R96, puzzle: Exclusion NG 2) , please?
OUT: condition met

IN: Could you do the same for AUUUAAUUUAAUAAGAUCACAUGAGGAUCACCCAUGUUAUAAUAGGAUAUCAGCUCGAUUAGAGCUGAGAAGGAUUAUAACAUG [ExNG3/9-A1] (Eterna round: R96, puzzle: Exclusion NG 3) , please?
OUT: condition not met
